// values below are reported Kd
Molecular target: IRP1 (Homo sapiens)
Sequence (P21399 1-889): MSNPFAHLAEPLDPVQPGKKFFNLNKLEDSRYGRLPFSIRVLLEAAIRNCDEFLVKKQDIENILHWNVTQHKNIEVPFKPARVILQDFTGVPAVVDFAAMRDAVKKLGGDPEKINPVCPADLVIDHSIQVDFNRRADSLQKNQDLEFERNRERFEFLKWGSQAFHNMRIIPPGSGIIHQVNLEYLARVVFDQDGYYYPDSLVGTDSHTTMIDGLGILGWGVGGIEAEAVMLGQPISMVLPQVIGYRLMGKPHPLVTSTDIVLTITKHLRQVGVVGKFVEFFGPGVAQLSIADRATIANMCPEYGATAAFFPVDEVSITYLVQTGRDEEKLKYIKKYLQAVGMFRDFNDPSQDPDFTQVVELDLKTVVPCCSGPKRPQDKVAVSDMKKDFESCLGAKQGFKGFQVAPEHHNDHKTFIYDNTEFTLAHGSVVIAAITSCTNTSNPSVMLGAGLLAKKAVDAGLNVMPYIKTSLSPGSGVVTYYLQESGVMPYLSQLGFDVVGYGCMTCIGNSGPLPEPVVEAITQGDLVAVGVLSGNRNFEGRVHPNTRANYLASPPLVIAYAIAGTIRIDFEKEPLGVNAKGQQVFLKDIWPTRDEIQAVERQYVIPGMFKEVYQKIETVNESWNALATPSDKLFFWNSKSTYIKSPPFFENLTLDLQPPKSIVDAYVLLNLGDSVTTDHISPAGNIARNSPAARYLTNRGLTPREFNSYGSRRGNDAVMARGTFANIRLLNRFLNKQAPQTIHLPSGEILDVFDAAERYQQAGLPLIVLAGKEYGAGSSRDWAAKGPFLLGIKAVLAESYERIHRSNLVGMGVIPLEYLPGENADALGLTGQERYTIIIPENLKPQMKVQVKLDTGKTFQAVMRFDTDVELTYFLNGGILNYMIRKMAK
Assay: Microscale thermophoresis (MST) binding of IRE RNAs to IRP1
Settings: cell free, labeled IRP1 2 nM, without Posiphen; read-out: Kd of IRE RNA binding to IRP1
Numbers only; they are read as nM.

>  <substance>
APP: APP IRE RNA oligo GGUGGCGGCGCGGGCAGAGCAAGGACGCGGCGGAU (RNA, backbone not given here)

>  <Kd, nM>
225

$$$$

// next item, Kd requested
Challenge: I would be grateful if you could share the reported Kd for H-Ferritin: H-Ferritin IRE RNA oligo GGGGUUUCCUGCUUCAACAGUGCUUGGACGGAACC (RNA, backbone not given here) .
Response given: 88.5
